All values here come from ChEMBL document CHEMBL1153211.

assay_target: UniProtKB P51681
Sequence (P51681 whole entry): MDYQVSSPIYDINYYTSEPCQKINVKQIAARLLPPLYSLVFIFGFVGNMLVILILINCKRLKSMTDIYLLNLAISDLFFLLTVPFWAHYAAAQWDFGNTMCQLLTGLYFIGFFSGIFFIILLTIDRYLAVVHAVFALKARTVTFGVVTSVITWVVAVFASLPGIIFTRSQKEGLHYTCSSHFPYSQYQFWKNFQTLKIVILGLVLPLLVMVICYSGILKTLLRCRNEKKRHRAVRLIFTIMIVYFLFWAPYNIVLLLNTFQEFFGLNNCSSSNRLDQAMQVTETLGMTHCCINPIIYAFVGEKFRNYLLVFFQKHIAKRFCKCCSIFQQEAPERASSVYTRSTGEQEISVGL
test_details: Antagonist activity at human CCR5
pIC50: −log10 of the molar value.
experimental_readout: pIC50

Worked examples, 4 compounds total:
[[record]]
compound = "Cc1cc(C(F)(F)F)nc(C)c1C(=O)N1C[C@H]2CN(CCC3(c4ccccc4)CN(C(=O)C4CCC(F)(F)CC4)C3)C[C@H]2C1"
result_number = 7.68

[[record]]
compound = "Cc1ncnc(C)c1C(=O)N1C[C@H]2CN(CCC3(c4ccccc4)CN(C(=O)C(C)(C)C)C3)C[C@H]2C1"
result_number = 7.57

[[record]]
compound = "Cc1ncnc(C)c1C(=O)N1C[C@H]2CN(CCC3(c4ccccc4)CN(C(=O)CC4CCCC4)C3)C[C@H]2C1"
result_number = 7.55

[[record]]
compound = "Cc1cc(C#N)nc(C)c1C(=O)N1C[C@H]2CN(CCC3(c4ccccc4)CN(C(=O)C4CCC(F)(F)CC4)C3)C[C@H]2C1"
result_number = 7.77


[P] Cc1ncnc(C)c1C(=O)N1C[C@H]2CN(CCC3(c4ccccc4)CN(S(=O)(=O)C4CCCC4)C3)C[C@H]2C1
[Q] Cc1ncnc(C)c1C(=O)N1C[C@H]2CN(CCC3(c4cccc(F)c4)CCN(C(=O)C(C)(C)C)CC3)C[C@H]2C1
[R] Cc1ncnc(C)c1C(=O)N1C[C@H]2CN(CCC3(c4ccccc4)CCN(C(=O)C4CCCC4)C3)C[C@H]2C1 (some centres not stated)
Sort entries by pIC50 from minimum to maximum value. Enter labels, ranked according to the request. R, Q, P
